conditions: 323.15 K; 101 kPa; Liquid; Drop weight
interfacial tension under 5 mN/m gets T, anything at or over 5 mN/m gets F.

Worked examples follow.
- CCOC(C)=O [ethyl acetate] + O: F
- CCCCOC(C)=O [butyl ethanoate] + O: F
- Cc1ccccc1 [toluene] + O: F
- OC1CCCCC1 [cyclohexanol] + O: T

Next compound, please.
Decide: interfacial tension of O=C1CCCCC1 [cyclohexanone] + O strictly below 5 mN/m?
T

---

interfacial tension: recorded values
details: 289.15 K; 101 kPa; Liquid; Drop weight
Answer with a number only, understood to be in mN/m.

• CCOC(C)=O [ethyl acetate] + O = 7.37
• CCCCOC(C)=O [butyl ethanoate] + O = 14.9
• CCCCCCCCO [octan-1-ol] + O = 9.1

Now for the compound whose interfacial tension we want.
Value of measured interfacial tension for the entry O=C1CCCCC1 [cyclohexanone] + O : 4.43

---

conditions: 303.15 K; 101 kPa; Liquid; Drop weight
Entries and their interfacial tension
# output: bare number, implied unit mN/m

Example results:
• O=C1CCCCC1 [cyclohexanone] + O = 5.08
• CCCCOC(C)=O [butyl ethanoate] + O = 15.2

Note to self: interfacial tension recorded for OC1CCCCC1 [cyclohexanol] + O was 4.17

interfacial tension recorded for this molecule, CCOC(C)=O [ethyl acetate] + O , is 7.19

// recorded interfacial tension for Cc1ccccc1 [toluene] + O : 36

---

# interfacial tension per entry
conditions: 313.15 K; 101 kPa; Liquid; Drop weight
Your answer is read as mN/m, so omit the unit and give the number.

As a guide, the following entries are already answered.
* CCCCOC(C)=O [butyl ethanoate] + O | 15.1
* O=C1CCCCC1 [cyclohexanone] + O | 5.05
* OC1CCCCC1 [cyclohexanol] + O | 4.15
* Cc1ccccc1 [toluene] + O | 35.3

// next item, interfacial tension requested
The value of interfacial tension measured for the molecule CCOC(C)=O [ethyl acetate] + O turned out to be 7.15

Source listed as the NIST ThermoML archive (doi:10.1021/acs.jced.6b00703).
